Cited source: patent US11666558B2

- TEST PROTOCOL: Ocular tissue concentrations (aqueous humor, vitreous humor, iris, retina, choroid, cornea) after topical ocular, subcutaneous and intravitreal administration
- Format: in vivo, New Zealand White rabbits
- TEST SETTINGS: New Zealand White, rabbit, retina homogenate, subcutaneous, 5 mg/kg/dose, TABLE 16: Retina homogenate, 1 hr, OS; free acid, subcutaneous 5 mg/kg/dose, Group 3; read-out: Retina Conc. (ng/mL) OS
OBSERVATION TYPE: concentration at 1 h (ng/mL)
Output spec: scalar in ng/mL, unitless text.

Dear colleague, I am looking for the recorded concentration at 1 h of the following compound: `COC(=O)N[C@@H](Cc1ccccc1)C(=O)N[C@@H](Cc1ccc(NS(=O)(=O)O)cc1)c1csc(-c2cccs2)n1`
0.63

---

- TEST PROTOCOL: Ocular tissue concentrations (aqueous humor, vitreous humor, iris, retina, choroid, cornea) after topical ocular, subcutaneous and intravitreal administration
- Type: in vivo, New Zealand White rabbits
- TEST SETTINGS: New Zealand White, rabbit, cornea homogenate, subcutaneous, 5 mg/kg/dose, Cornea homogenate, 0.5 hr, OD; free acid, subcutaneous 5 mg/kg/dose, Group 3; read-out: Cornea Conc. (ng/mL) OD
OBSERVATION TYPE: concentration at 0.5 h (ng/mL)
Output spec: scalar in ng/mL, unitless text.

Dear colleague, I am looking for the recorded concentration at 0.5 h of the following molecule: COC(=O)N[C@@H](Cc1ccccc1)C(=O)N[C@@H](Cc1ccc(NS(=O)(=O)O)cc1)c1csc(-c2cccs2)n1 [Compound 1]
0.55

---

- TEST PROTOCOL: Ocular tissue concentrations (aqueous humor, vitreous humor, iris, retina, choroid, cornea) after topical ocular, subcutaneous and intravitreal administration
- Assay type: in vivo, New Zealand White rabbits
- TEST SETTINGS: New Zealand White, rabbit, cornea, other: intravitreal, 2.5 mg/eye, Cornea, 48 hr, left eye, intravitreal 2.5 mg/eye (group 5), individual animals; read-out: Conc. (ng/g) OS
OBSERVATION TYPE: concentration at 48 hr

Dear colleague, I am looking for the recorded concentration at 48 hr of the following compound: COC(=O)N[C@@H](Cc1ccccc1)C(=O)N[C@@H](Cc1ccc(NS(=O)(=O)O)cc1)c1csc(-c2cccs2)n1 [Compound 1]
3220 ng/g

---

- TEST PROTOCOL: Ocular tissue concentrations (aqueous humor, vitreous humor, iris, retina, choroid, cornea) after topical ocular, subcutaneous and intravitreal administration
- Type: in vivo, New Zealand White rabbits
- TEST SETTINGS: New Zealand White, rabbit, iris homogenate, subcutaneous, 5 mg/kg/dose, Iris homogenate, 4 hr, OS; sodium salt, subcutaneous 5 mg/kg/dose, Group 2; read-out: Iris Conc. (ng/mL) OS
OBSERVATION TYPE: concentration at 4 hr (ng/mL)
Output spec: scalar in ng/mL, unitless text.

Dear colleague, I am looking for the recorded concentration at 4 hr of the following compound: `COC(=O)N[C@@H](Cc1ccccc1)C(=O)N[C@@H](Cc1ccc(NS(=O)(=O)O)cc1)c1csc(-c2cccs2)n1`
3.1

---

- TEST PROTOCOL: Ocular tissue concentrations (aqueous humor, vitreous humor, iris, retina, choroid, cornea) after topical ocular, subcutaneous and intravitreal administration
- Type: in vivo, New Zealand White rabbits
- TEST SETTINGS: New Zealand White, rabbit, cornea homogenate, subcutaneous, 5 mg/kg/dose, TABLE 16: Cornea homogenate, 4 hr, OD; free acid, subcutaneous 5 mg/kg/dose, Group 3; read-out: Cornea Conc. (ng/mL) OD
OBSERVATION TYPE: concentration at 4 h (ng/mL)
Output spec: scalar in ng/mL, unitless text.

Dear colleague, I am looking for the recorded concentration at 4 h of the following compound: `COC(=O)N[C@@H](Cc1ccccc1)C(=O)N[C@@H](Cc1ccc(NS(=O)(=O)O)cc1)c1csc(-c2cccs2)n1`
0.942

---

- TEST PROTOCOL: Ocular tissue concentrations (aqueous humor, vitreous humor, iris, retina, choroid, cornea) after topical ocular, subcutaneous and intravitreal administration
- Assay type: in vivo, New Zealand White rabbits
- TEST SETTINGS: New Zealand White, rabbit, cornea, subcutaneous, 5 mg/kg/dose, Cornea, 0.5 hr; sodium salt, subcutaneous 5 mg/kg/dose, Group 2; read-out: Cornea Average
- Description: To measure the concentration of Compound 1 in plasma and ocular tissues following topical ocular, subcutaneous, and intravitreal administration, New Zealand White rabbits were administered Compound 1, and plasma and ocular samples were collected at pre-determined time points. […] Ocular tissue samples from both eyes of each animal were collected and weights were recorded. Plasma and ocular tissue sample concentrations of Compound 1 were determined by LC-MS/MS. […]
OBSERVATION TYPE: concentration at 0.5 h (ng/g)
Output spec: scalar in ng/g, unitless text.

Dear colleague, I am looking for the recorded concentration at 0.5 h of the following compound: COC(=O)N[C@@H](Cc1ccccc1)C(=O)N[C@@H](Cc1ccc(NS(=O)(=O)O)cc1)c1csc(-c2cccs2)n1 [Compound 1]
19.4

---

- TEST PROTOCOL: Ocular tissue concentrations (aqueous humor, vitreous humor, iris, retina, choroid, cornea) after topical ocular, subcutaneous and intravitreal administration
- Type: in vivo, New Zealand White rabbits
- TEST SETTINGS: New Zealand White, rabbit, cornea, topical, 1.2 mg/eye, topical ocular 1.2 mg/eye (~0.7 mg/kg/dose); 2 hr; read-out: Cornea tissue Average
Where a name gives a salt, the structure may show the parent alone.
OBSERVATION TYPE: concentration at 2 hr (ng/g)
Output spec: scalar in ng/g, unitless text.

Dear colleague, I am looking for the recorded concentration at 2 hr of the following molecule: COC(=O)N[C@@H](Cc1ccccc1)C(=O)N[C@@H](Cc1ccc(NS(=O)(=O)O)cc1)c1csc(-c2cccs2)n1 [Compound 1 sodium salt]
1070

---

- TEST PROTOCOL: Ocular tissue concentrations (aqueous humor, vitreous humor, iris, retina, choroid, cornea) after topical ocular, subcutaneous and intravitreal administration
- Assay type: in vivo, New Zealand White rabbits
- TEST SETTINGS: New Zealand White, rabbit, retina, other: intravitreal, 2.5 mg/eye, Retina, 6.0 hr, OD; sodium salt, intravitreal 2.5 mg/eye, Group 4; read-out: Retina Conc. (ng/g) OD
OBSERVATION TYPE: concentration at 6 h (ng/g)
Output spec: scalar in ng/g, unitless text.

Dear colleague, I am looking for the recorded concentration at 6 h of the following compound: COC(=O)N[C@@H](Cc1ccccc1)C(=O)N[C@@H](Cc1ccc(NS(=O)(=O)O)cc1)c1csc(-c2cccs2)n1 [Compound 1]
431000

---

- TEST PROTOCOL: Plasma concentrations and pharmacokinetic parameters after topical ocular, subcutaneous and intravitreal administration
- Type: in vivo, New Zealand White rabbits
- TEST SETTINGS: New Zealand White, rabbit, plasma, other: intravitreal, 1.55 mg/kg, plasma; intravitreal 2.5 mg/eye (~1.55 mg/kg), solution
Structures can show the parent of a compound that is named as a salt.
OBSERVATION TYPE: AUC(0-inf)
Field: value (include unit after the number)

Dear colleague, I am looking for the recorded AUC(0-inf) of the following compound: COC(=O)N[C@@H](Cc1ccccc1)C(=O)N[C@@H](Cc1ccc(NS(=O)(=O)O)cc1)c1csc(-c2cccs2)n1 [Compound 1 sodium salt]
956 ng·h/mL

---

- TEST PROTOCOL: Ocular tissue concentrations (aqueous humor, vitreous humor, iris, retina, choroid, cornea) after topical ocular, subcutaneous and intravitreal administration
- Type: in vivo, New Zealand White rabbits
- TEST SETTINGS: New Zealand White, rabbit, choroid, subcutaneous, 5 mg/kg/dose, TABLE 16: Choroid, 1 hr, OD; free acid, subcutaneous 5 mg/kg/dose, Group 3; read-out: Choroid Conc. (ng/g) OD
OBSERVATION TYPE: concentration at 1 h (ng/g)
Output spec: scalar in ng/g, unitless text.

Dear colleague, I am looking for the recorded concentration at 1 h of the following molecule: COC(=O)N[C@@H](Cc1ccccc1)C(=O)N[C@@H](Cc1ccc(NS(=O)(=O)O)cc1)c1csc(-c2cccs2)n1 [Compound 1]
66.4

---

- TEST PROTOCOL: Ocular tissue concentrations (aqueous humor, vitreous humor, iris, retina, choroid, cornea) after topical ocular, subcutaneous and intravitreal administration
- Format: in vivo, New Zealand White rabbits
- TEST SETTINGS: New Zealand White, rabbit, iris, other: intravitreal, 2.5 mg/eye, Iris, 48 hr, OD; sodium salt, intravitreal 2.5 mg/eye, Group 4; read-out: Iris Conc. (ng/g) OD
OBSERVATION TYPE: concentration at 48 h
Field: value (include unit after the number)

Dear colleague, I am looking for the recorded concentration at 48 h of the following compound: `COC(=O)N[C@@H](Cc1ccccc1)C(=O)N[C@@H](Cc1ccc(NS(=O)(=O)O)cc1)c1csc(-c2cccs2)n1`
26200 ng/g

---

- TEST PROTOCOL: Ocular tissue concentrations (aqueous humor, vitreous humor, iris, retina, choroid, cornea) after topical ocular, subcutaneous and intravitreal administration
- Assay type: in vivo, New Zealand White rabbits
- TEST SETTINGS: New Zealand White, rabbit, choroid, subcutaneous, 5 mg/kg/dose, TABLE 16: Choroid, 2 hr; free acid, subcutaneous 5 mg/kg/dose, Group 3; read-out: Choroid Average
OBSERVATION TYPE: concentration at 2 h (ng/g)
Output spec: scalar in ng/g, unitless text.

Dear colleague, I am looking for the recorded concentration at 2 h of the following compound: COC(=O)N[C@@H](Cc1ccccc1)C(=O)N[C@@H](Cc1ccc(NS(=O)(=O)O)cc1)c1csc(-c2cccs2)n1 [Compound 1]
47.7
